target: Cellular tumor antigen p53 (Homo sapiens, UniProt P04637); experiment: Induction of p53 transcriptional activity (unknown origin) expressed in HEK293 cells coexpressing TK-driven Rluc after 20 to 22 hrs by luciferase reporter gene assay
Sequence (P04637 whole entry): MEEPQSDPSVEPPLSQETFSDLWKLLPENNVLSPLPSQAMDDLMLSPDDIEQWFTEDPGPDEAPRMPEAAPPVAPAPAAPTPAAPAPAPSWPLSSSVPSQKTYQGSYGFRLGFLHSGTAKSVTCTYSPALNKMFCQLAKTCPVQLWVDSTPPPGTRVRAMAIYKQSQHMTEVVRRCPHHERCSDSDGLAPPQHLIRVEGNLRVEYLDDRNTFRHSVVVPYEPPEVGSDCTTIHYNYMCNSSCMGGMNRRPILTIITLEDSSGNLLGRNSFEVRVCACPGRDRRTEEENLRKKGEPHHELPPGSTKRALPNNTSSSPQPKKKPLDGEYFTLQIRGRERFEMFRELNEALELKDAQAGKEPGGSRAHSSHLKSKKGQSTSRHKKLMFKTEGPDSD
pEC50: −log10 of the molar value.

[
  {
    "Molecule": "O=C1CCCN1c1ccc(S(=O)(=O)N2CCCc3ccccc32)cc1",
    "Cmp": "=",
    "pEC50": 7.92
  },
  {
    "Molecule": "O=S(=O)(c1ccc(-n2cncn2)cc1)N1CCCc2ccccc21",
    "Cmp": "<",
    "pEC50": 5.30
  },
  {
    "Molecule": "Cc1ccc2c(c1)CCCN2S(=O)(=O)c1ccc(N2CCCC2=O)cc1",
    "Cmp": "=",
    "pEC50": 8.40
  },
  {
    "Molecule": "COc1ccc2c(c1)N(C)CCN2S(=O)(=O)c1ccc(N2CCCC2=O)cc1",
    "Cmp": "=",
    "pEC50": 8.40
  },
  {
    "Molecule": "CN1CCN(S(=O)(=O)c2ccc(N3CCCC3)cc2)c2ccccc21",
    "Cmp": "=",
    "pEC50": 7.19
  },
  {
    "Molecule": "CCCN(c1ccccc1)S(=O)(=O)c1ccc(N2CCCC2=O)cc1",
    "Cmp": "=",
    "pEC50": 6.80
  },
  {
    "Molecule": "CC(C)(C)c1ccc2c(c1)CCCN2S(=O)(=O)c1ccc(N2CCCC2=O)cc1",
    "Cmp": "=",
    "pEC50": 6.82
  },
  {
    "Molecule": "CN1CCN(S(=O)(=O)c2ccc(N3CCCC3=O)cc2)c2ccccc21",
    "Cmp": "=",
    "pEC50": 8.70
  },
  {
    "Molecule": "CN1CCN(S(=O)(=O)c2ccc(N3CCC=N3)cc2)c2ccccc21",
    "Cmp": "=",
    "pEC50": 7.13
  },
  {
    "Molecule": "COc1ccc2c(c1)CCCN2S(=O)(=O)c1ccc(N2CCCC2=O)cc1",
    "Cmp": "=",
    "pEC50": 8.05
  }
]

---

target: Cellular tumor antigen p53 (Homo sapiens, UniProt P04637); assay: Activation of p53 in human MCF7 cell lysates assessed as increase in total p53 protein level by Western blot analysis
Measured endpoint: EC50 (µM)

[
  {
    "Molecule": "CN1CCN(S(=O)(=O)c2ccc(N3CCCC3=O)cc2)c2ccccc21",
    "Measured endpoint": "EC50",
    "Reading unit": "µM",
    "Recorded measurement": 0.018
  }
]
